ASSAYED_TARGET: H3 HA A/Hong Kong/1/1968 (H3N2), recombinant soluble trimer (influenza A virus, UniProt Q91MA7 17-530)
METRIC: EC50
Remember to follow the number with its unit.

Write down EC50 measured for item rFluA-20 heavy chain mutant Y100aA (antibody, V domains shown) VH: QVQLQESGPGLVKPSETLSLTCSVSGVSVTSDIYYWTWIRQPPGKGLEWIGYIFYNGDTNYNPSLKSRVTMSIDTSKNEFSLRLTSVTAADTAVYFCARGTEDLGACSSGSCPNHWGQGTLVTVSS VL: DIQMTQSPSSLSASIGDRVTITCRPSQNIRSFLNWFQHKPGKAPKLLIYAASNLQSGVPSRFSGSGSGTEFTLTIRSLQPEDFATYYCQQSYNTPPTFGQGTKVEIK
0.07 µg/mL

Write down EC50 measured for item rFluA-20 light chain mutant N53A (antibody, V domains shown) VH: QVQLQESGPGLVKPSETLSLTCSVSGVSVTSDIYYWTWIRQPPGKGLEWIGYIFYNGDTNYNPSLKSRVTMSIDTSKNEFSLRLTSVTAADTAVYFCARGTEDLGYCSSGSCPNHWGQGTLVTVSS VL: DIQMTQSPSSLSASIGDRVTITCRPSQNIRSFLNWFQHKPGKAPKLLIYAASALQSGVPSRFSGSGSGTEFTLTIRSLQPEDFATYYCQQSYNTPPTFGQGTKVEIK
0.06 µg/mL
